test system: Leptomonas seymouri; assay: Antitrypanosomal activity against Leptomonas seymouri; assay type: functional, organism-based
pIC50: −log10 of the molar value.

>  <compound>
CCC1(C)CCC2=C(O1)c1ccccc1C(=O)C2=O (centres undefined)

>  <pIC50>
6.52

$$$$
>  <compound>
CC1(c2ccccc2)CCC2=C(O1)c1ccccc1C(=O)C2=O (centres undefined)

>  <pIC50>
6.15

$$$$
>  <compound>
CC1=CC2=C(C(=O)C1=O)C(C)CCC2C(C)C (centres undefined) [MANSONONE A]

>  <pIC50>
5.07

$$$$
>  <compound>
CC1=Cc2c(C(C)C)ccc(C)c2C(=O)C1=O

>  <pIC50>
5.40

$$$$
>  <compound>
CC1=C2OCC(C)c3ccc(C)c(c32)C(=O)C1=O (centres undefined) [MANSONONE E]

>  <pIC50>
6.40

$$$$
>  <compound>
CC1(C)CCC2=C(O1)c1ccccc1C(=O)C2=O [LAPACHONE]

>  <pIC50>
6.40

$$$$
>  <compound>
CC1(C)CCC2=C(O1)C(=O)c1ccccc1C2=O [ALPHA-LAPACHONE]

>  <pIC50>
5.39

$$$$
>  <compound>
CC1(C)CCC2=C(O1)c1cc(Cl)ccc1C(=O)C2=O

>  <pIC50>
6.40

$$$$
>  <compound>
CC1=COC2=C(C)C(=O)C(=O)c3c(C)ccc1c32 [MANSONONE F]

>  <pIC50>
7.00

$$$$

---

test: Oxidation of dithiothreitol assessed as oxygen consumption at 50 uM; format: physicochemical
Each record here notes measured Activity.
propertyName: Activity (µM/min)

>  <compound>
CC1=C2OCC(C)c3ccc(C)c(c32)C(=O)C1=O (stereo not drawn)

>  <propertyName>
Activity

>  <endpointValue>
66

$$$$
>  <compound>
CC1=CC2=C(C(=O)C1=O)C(C)CCC2C(C)C (stereo not drawn)

>  <propertyName>
Activity

>  <endpointValue>
37

$$$$
>  <compound>
CC1(C)CCC2=C(O1)c1ccccc1C(=O)C2=O

>  <propertyName>
Activity

>  <endpointValue>
238

$$$$
>  <compound>
CC1(C)CCC2=C(O1)c1cc(Cl)ccc1C(=O)C2=O

>  <propertyName>
Activity

>  <endpointValue>
470

$$$$
>  <compound>
CC1(C)CCC2=C(O1)C(=O)c1ccccc1C2=O

>  <propertyName>
Activity

>  <endpointValue>
1

$$$$
>  <compound>
CCC1(C)CCC2=C(O1)c1ccccc1C(=O)C2=O (stereo not drawn)

>  <propertyName>
Activity

>  <endpointValue>
208

$$$$
>  <compound>
CC1=COC2=C(C)C(=O)C(=O)c3c(C)ccc1c32

>  <propertyName>
Activity

>  <endpointValue>
14

$$$$
>  <compound>
CC1(c2ccccc2)CCC2=C(O1)c1ccccc1C(=O)C2=O (stereo not drawn)

>  <propertyName>
Activity

>  <endpointValue>
315

$$$$

---

experiment: Oxidation of dihydrolipoamide assessed as oxygen consumption at 50 uM; format: physicochemical

>  <compound>
CC1(c2ccccc2)CCC2=C(O1)c1ccccc1C(=O)C2=O (centres undefined)

>  <displayUnit>
µM/min

>  <Activity>
990

$$$$
>  <compound>
CC1=Cc2c(C(C)C)ccc(C)c2C(=O)C1=O

>  <displayUnit>
µM/min

>  <Activity>
434

$$$$
>  <compound>
CC1(C)CCC2=C(O1)C(=O)c1ccccc1C2=O

>  <displayUnit>
µM/min

>  <Activity>
7

$$$$
>  <compound>
CC1(C)CCC2=C(O1)c1ccccc1C(=O)C2=O

>  <displayUnit>
µM/min

>  <Activity>
808

$$$$
>  <compound>
CC1(C)CCC2=C(O1)c1cc(Cl)ccc1C(=O)C2=O

>  <displayUnit>
µM/min

>  <Activity>
879

$$$$
>  <compound>
CC1=C2OCC(C)c3ccc(C)c(c32)C(=O)C1=O (centres undefined)

>  <displayUnit>
µM/min

>  <Activity>
276

$$$$
>  <compound>
CC1=COC2=C(C)C(=O)C(=O)c3c(C)ccc1c32

>  <displayUnit>
µM/min

>  <Activity>
58

$$$$
>  <compound>
CCC1(C)CCC2=C(O1)c1ccccc1C(=O)C2=O (centres undefined)

>  <displayUnit>
µM/min

>  <Activity>
733

$$$$
>  <compound>
CC1=CC2=C(C(=O)C1=O)C(C)CCC2C(C)C (centres undefined)

>  <displayUnit>
µM/min

>  <Activity>
26

$$$$
